- testSystem: CXCR4 D97E + V112L (human, UniProt P61073-1 1-352, D97E | V112L)
- Sequence (P61073 whole entry D97E/V112L): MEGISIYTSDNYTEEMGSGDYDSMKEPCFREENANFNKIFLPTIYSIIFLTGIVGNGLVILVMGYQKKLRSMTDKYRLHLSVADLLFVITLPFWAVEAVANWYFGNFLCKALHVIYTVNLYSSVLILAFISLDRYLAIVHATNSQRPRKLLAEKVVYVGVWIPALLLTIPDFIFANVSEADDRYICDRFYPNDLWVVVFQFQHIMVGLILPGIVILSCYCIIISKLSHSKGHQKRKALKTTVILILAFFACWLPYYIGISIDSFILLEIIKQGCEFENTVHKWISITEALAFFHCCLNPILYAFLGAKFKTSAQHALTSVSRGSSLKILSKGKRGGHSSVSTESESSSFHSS
- experimentSummary: FACS
pIC50: −log10 of the molar value.
attributeMeasured: pIC50

[P] ILRWSRKLPCVS (source: synthetic peptide (Fmoc solid-phase synthesis, HPLC-purified)) [EPI-X4 JM#21]
[Q] IVRWSKKVPCVS (also called EPI-X4 WSC02; source: synthetic peptide (Fmoc solid-phase synthesis, HPLC-purified)) [WSC02]
Of P versus Q , which is the one with smaller reported pIC50? Your answer should be the label attached to the chosen record.
Q
